pIC50: recorded values
tested on: MCF7; assay: Antiproliferative activity against human MCF7 cells after 2 days by MTT assay; type: functional, cell-based; settings: MCF7, 48 h
Remember, pIC50 is on a log scale: it is -log10 of the molar concentration.

Some molecules with recorded pIC50:
## Input State measured pIC50 of the molecule COc1cc2c(c(OC)c1OC)-c1ccc(OC)c(=O)cc1[C@@H](NC(=O)c1ccc(Br)cc1)CC2 with MCF7.
## Output 8.05

## Input State pIC50 on MCF7. Entry: COc1cc2c(c(OC)c1OC)-c1ccc(OC)c(=O)cc1[C@@H](NC(=O)c1ccccc1)CC2
## Output 8.30

## Input System MCF7. Read-out pIC50. Item COc1cc2c(c(OC)c1OC)-c1ccc(OC)c(=O)cc1[C@@H](NC(=O)c1ccccc1Cl)CC2 . Report value.
## Output 8.35

## Input Report pIC50 under test system MCF7 for COc1cc2c(c(OC)c1OC)-c1ccc(OC)c(=O)cc1[C@@H](NC(=O)c1ccc(C(C)(C)C)cc1)CC2 .
## Output 7.62

## Input Fetch value of pIC50 on MCF7 for COc1cc2c(c(OC)c1OC)-c1ccc(OC)c(=O)cc1[C@@H](NC(=O)CF)CC2 .
## Output 8.14

## Input Enter pIC50 (test system MCF7) for COc1cc2c(c(OC)c1OC)-c1ccc(OC)c(=O)cc1[C@@H](NC(=O)c1cccc(Cl)c1)CC2
## Output 8.47

## Input Report pIC50 from MCF7 testing of COc1cc2c(c(OC)c1OC)-c1ccc(OC)c(=O)cc1[C@@H](NC(=O)c1ccccc1Br)CC2
## Output 8.12

Now for another entry.
## Input Quote MCF7 pIC50 for entry COc1cc2c(c(OC)c1OC)-c1ccc(OC)c(=O)cc1[C@@H](NC(=O)Cc1ccccc1)CC2 .
## Output 8.59
